# credit: patent US20210292393A1

# median fluorescence fold over isotype control (fold over isotype) listing for each entry below
# Target or test system: SARS-CoV-2 full length spike protein, V483A mutant, expressed on CHO cells (SARS-CoV-2), P0DTC2
# Measurement setup: remark: other sources report otherwise
Endpoint name: median fluorescence fold over isotype control (fold over isotype)

[
  {
    "Binder": "antibody 382 (antibody, V domains shown) VH: QVQLVESGGGVVQPGRSLRLSCAASGFTFSNYGMHWVRQAPGKGLEWMTVISFDGRNKYYADSVKGRFTISRDNSKNTLFLQMNSLTTEDTALYFCASGRRPRYSSGWSFDYWGQGTLVTVSS VL: DIQMTQSPSSLSASVGDRVTITCQASQDIGNYLNWYQQKLGKAPNLLIYDASNLETGVPSRFSGSGSGTDFTFTINSLQPEDTATYYCQQYDDPSITFGQGTRLEIK",
    "Recorded number": 0.88
  },
  {
    "Binder": "antibody 390 (antibody, V domains shown) VH: EVQLVESGGGLIQPGGSLRLSCAASGFTVSSNYMSWVRQAPGKGLEWVSIIYSGGSTYYADSVKGRFTISRDNSKNTLYLQMNSLRAEDSAVYSCATTMVRGLIISYYYGMDVWGQGTTVTVSS VL: QSALTQPASVSGSPGQSITISCTGTSSDVGGYNYVSWYQQHPGKAPKLMIYEVSNRPSGVSNRFSGSKSGNTASLTISGLQAEDEADYYCSSYTSSSTLVFGGGTKLTVL",
    "Recorded number": 1.36
  },
  {
    "Binder": "antibody 413 (antibody, V domains shown) VH: EVQLVESGGGLIQPGGSLRLSCAASGFTVSGNYMNWVRQAPGKGLEWVSVIYSGGSTYYADSVKGRFTISRANSKNTLYLQMNSLRAEDTAVYYCASTSLVRGLIILYYYGMDVWGQGTTVTVSS VL: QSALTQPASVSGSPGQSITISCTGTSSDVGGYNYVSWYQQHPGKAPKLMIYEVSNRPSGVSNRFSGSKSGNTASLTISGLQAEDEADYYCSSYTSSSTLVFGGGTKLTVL",
    "Recorded number": 1.67
  },
  {
    "Binder": "antibody 383 (antibody, V domains shown) VH: EVQLVESGGGLVQPGGSLRLSCAASGFTFSSYDMHWVRQATGKGLEWVSTIGTAGDTYYPGSVKGRFTISRENAKNSLYLQMNSLRAGDTAVYYCARVAYSSSFVYWYFDLWGRGTLVTVSS VL: DIQMTQSPSSLSASIGDRVTITCRASQSISSYLNWYQQKPGKAPNLLIYAASSLQSGVPSRFSGSGSGTDFTLTISSLQPEDFATYYCQQSYTTPLYTFGQGTKLEIK",
    "Recorded number": 1.8
  },
  {
    "Binder": "antibody 389 (antibody, V domains shown) VH: QVQLVESGGGVVQPGRSLRLSCAASGFTFSSYAMHWVRQAPGKGLEWVAVISYDGSNKYYADSVKGRFTISRDNSKNTLYLQMNSLRAEDTAVYYCASQGRMYVRGVDYGVYWGQGTLVTVSS VL: NFMLTQPHSVSESPGKTVTISCTGSSGSIASNYVQWYQQRPGSAPTTVIYEDNQRPSGVPDRFSGSIDSSSNSASLTISGLKTEDEADYYCQSYDSSKISHAVFGGGTQLTVL",
    "Recorded number": 1.24
  }
]
